- Assay remarks: Bioequivalence / pharmacokinetic study of compound febantel tablets after single oral dose, plasma levels by UPLC–MS/MS
- Conditions: beagle, dog, t1/2 (elimination half–life), test product (T), single oral tablet, 38 beagle dogs, fasting, mean ± SD

| Molecule | half-life [h] |
| --- | --- |
| COC(=O)Nc1nc2ccc([S+]([O-])c3ccccc3)cc2[nH]1 (stereo not shown) | 3.83 |

###

- Assay remarks: Stability of the analytes in beagle dog plasma (bench top, refrigerator, freeze–thaw, autosampler, short and long term storage)
- Assay type: physicochemical
- Conditions: freeze–thaw after 3rd cycle at −80°C; dog plasma; HQC; n = 5
Mean stability sample ±SD values, listed per item
Recorded endpoint: Mean stability sample ±SD (ng/mL)

| Compound | Reported measurement |
| --- | --- |
| CN1CCCN=C1/C=C/c1cccs1 | 170.71 |
| O=C(C1CCCCC1)N1CC(=O)N2CCc3ccccc3C2C1 (stereo not shown) | 669.52 |
| COC(=O)Nc1nc2ccc([S+]([O-])c3ccccc3)cc2[nH]1 (stereo not shown) | 175.01 |
| COC(=O)Nc1nc2ccc(Sc3ccccc3)cc2[nH]1 | 447.72 |

Cited source for all entries: paper PMC11864945
